Assignment: determine reported Ki for the given compounds.
TESTED_SYSTEM: human recombinant PAK1-KD protein (Homo sapiens, UniProt Q13153)
Sequence (Q13153 270-521 limits assumed): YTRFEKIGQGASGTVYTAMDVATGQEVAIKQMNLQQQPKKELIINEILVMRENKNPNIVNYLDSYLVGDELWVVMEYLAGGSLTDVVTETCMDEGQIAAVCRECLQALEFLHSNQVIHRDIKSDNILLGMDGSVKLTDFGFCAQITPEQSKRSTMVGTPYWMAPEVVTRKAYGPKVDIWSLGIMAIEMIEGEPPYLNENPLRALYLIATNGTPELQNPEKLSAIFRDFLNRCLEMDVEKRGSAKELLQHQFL
EXPERIMENTAL_DETAILS: PAK1-KD (Kinase Domain) IC50 Zlyte Assay (FRET peptide substrate phosphorylation)
REPORTED_CONDITIONS: Z'-LYTE, Biological Example 1
Answers are plain numbers, in nM.

Here are 2 compounds together with their reported answers.
MOLECULE_SMILES | TESTED_SYSTEM | Ki [nM]
Cc1cccc(-c2ccc(-c3cc4cnc(NC5COC5)nc4n(CCCC(N)=O)c3=O)c(C)c2)n1 | human recombinant PAK1-KD protein (Homo sapiens, UniProt Q13153) | 11.3
CCNc1ncc2cc(-c3ccc(-c4cncc(C)n4)cc3Cl)c(=O)n(CCOC3CNC3)c2n1 | human recombinant PAK1-KD protein (Homo sapiens, UniProt Q13153) | 6.94

input: Dear colleague, I am looking for the recorded Ki of the following compound: CNc1ncc2cc(-c3ccc(-c4cncc(C)n4)cc3Cl)c(=O)n(CCN3CCOCC3)c2n1
output: 78.2
